# protocol.details: soluble on expression in E. coli; label from the status in PepcDB or PDB records
quantity.name: soluble on expression in E. coli

{"sequence.input": "MIKLVRIDYRLLHGQVVFAWTRALDIDHIIVANANAAGDAFVSMSLSLAKPAGVSLDIITVEQAAEKLASGKLDHKKVMVVLGNTAETLAFVEKVPGISVINYGGIAQKEGAQQFGKAIYLTEQEIADSQALKAKGIRLEMRQVPAHSAELLNDKL", "endpoint.value": "not soluble"}
{"sequence.input": "MSLEEETYVVFDVETTGLSAVYDTIIELAAVKVKGGEIIDKFEAFANPHRPLSATIIELTGITDDMLQDAPDVVDVIRDFREWIGDDILVAHNASFDMGFLNVAYKKLLEVEKAKNPVIDTLELGRFLYPEFKNHRLNTLCKKFDIELTQHHRAIYDTEATAYLLLKMLKDAAEKGIQYHDELNENMGQSNAYQRSRPYHATLLAVNSTGLKNLFKLVSLSHIHYFYRVPRIPRSQLEKYREGLLIGSACDRGEVFEGMMQKSPEEVEDIASFYDYLEVQPPEVYRHLLELELVRDEKALKEIIANITKLGEKLNKPVVATGNVHYLNDEGHHHHHH", "endpoint.value": "not soluble"}
{"sequence.input": "MSLPRKIAYEIPKNWARSNHWLMKTIVGTTFEIEGLENIPETGCIFAPKHQSFWDTYALLPNLPDPVYILKRELLWIPLFGWYAMKQRMIPVNRAARGKVMLKVMERAKEEMAAGRELIIYPEGTRRPPGAEPEYRYGIARLYRDLQVPVIPVAMHPGLFWPRRSTMRYPGHFKVRILPAIEPGLDPDVFFKRLIEVTEKASDELLLETARNNPHLPLPPTAVKRIAELQGKETTADEGHHHHHH", "endpoint.value": "not soluble"}
{"sequence.input": "MSLKLLPAKQEAIEFVHFANVINDYLYKYPDKRNSGGTLTSEQIGITPVYDIHHIIYGKRVYIWSADTEGLMSALQQQTKHSAMLGRVKNKKIVDNQGNDMGVPVPSSIPEEAIVLINEGHHHHHH", "endpoint.value": "soluble"}
{"sequence.input": "MAISDGRTGNTRQAEALASTLVGSLYTTQVLKPRIPWRWTAPYCLPGAKHAFGTTFSHALRYPPFLAIGCGRQAALATRLLHKQGACVVQILDPRLPARHWDLLVVPEHDHIRGHNVLTLLGSLHPVNDVWLATGRAQFPELGDLPGQRVALLVGAPTPQAPWQPAQLEELCTALVKGLSCGGSVLATTSRRTPPELATQLRKHLATIPGLFWNNTDKGANPYPGILGWADAIIATADSVNLLSEACATRAPVTAAFANQTRGRIRCFIDALGARLCTVENLLAIDTLAQPLRETERIANEVRAWFGMV", "endpoint.value": "not soluble"}
{"sequence.input": "MSLTFIRKVETWITNSKQTEDGWSQIKPFIFLKLTNSDGFEGWGEAFSLPAREKGIVEIIHNLMSSLSYVKDITPDRFYTESNLIADGHRGIDFSAATSAIEMSLWDIEGKKEKKPLYKILSKDYREKVPVYATIWSEDFKNDENLSSRCIEILSDGYGGIKIYPLQNRTVEQAAKCVSKIRDVLGYKIPLMLDLACPKDTNISLKLASLVEEFRPYWFEEPVDGEATRALKDIREKTSLRIVSGEKQCGLNHFIETLALDAVDIFNPDISGVGGIIDMIKIIKLSHEKKVTVSPHCWNSMSIAASAMVHVCMSFTNTEMAEFFPEYIPYSLKFSNQNYEIKDGFVKIEDNEGLGINIDTKLLMEDTSSYRETELTEGHHHHHH", "endpoint.value": "soluble"}
{"sequence.input": "MSLTGNAQAATIADPSTLVVDTVGPVLTIGLNRPKKRNALNDGLMAALKDCLTDIPDQIRAVVIHGIGDHFSAGLDLSELRERDATEGLVHSQTWHRVFDKIQYCRVPVIAALKGAVIGGGLELACAAHIRVAEASAYYALPEGSRGIFVGGGGSVRLPRLIGVARMADMMLTGRVYSAAEGVVHGFSQYLIENGSAYDKALELGNRVAQNAPLTNFAVLQALPMIAEANPQTGLLMESLMATVAQSDQEAKTRIRAFLDHKTAKVREGHHHHHH", "endpoint.value": "soluble"}
{"sequence.input": "MSVVGEERKRTILEKVEFKGKVKVSELAREFAVSTETIRRYLEELDREKKLKKVYGGAVQLPGAGVEAPMLEREMLHIEEKKRIGYKAATFVEDGDVIAIDDGSTPLQMVPYLVHRKNLTIVTSSFPVATQLISSINKKMFHGEVLFIGGKVSPKHSRVSGSISQQVIQQFHFHKAFVSIDGLLPSFGVSSFELEKAKLSEAMMKLAEKTYILCDHTKVGVKGNYRIAAISRIQHVICDKKMPYSFEEELMKHNIQWTVCLEHHHHHH", "endpoint.value": "soluble"}
{"sequence.input": "MFQLLAVCPMGLEAVVAKEIQELGYDTQVENGRIFFEGDESAIVRCNLWLRTADRIKIVMGRFNATTFDELFEQTKSLPWETVIDKEGNFPVQGRSVKSTLYSVPDCQAITKKAIVERLKHAHQEKGWLSETGAKYPVEVAILKDNVLLTIDTAGSGLNKRGYRIAQGEAPIKETLAASLIRLANWNGNTPLIDPFCGSGTIAIEACLIAQNIAPGFNRDFVSEQWNMMPPNIYDKFRDEADQLADYDKDIQVYASDIDPEMIEIAKRNAEEVGLGDIIQFNVKDVNTLSIDTDKPVALVGNPPYGERIGDREEVEEMYRYIGTLLKQHPHLSAYILTSNKEFEYLVNRKATKRRKLFNGYIECTYYQYWGKKQSNKN", "endpoint.value": "not soluble"}
{"sequence.input": "MGHHHHHHSHMAASTASQRPLKGILKDNTSTTSSMVASAEHPRGSVHEQLSKKSQKWDEMNILATYRPADKDYGLMKIDEPSTPYHSTMGDDEDACSDTETTEAMATDSLAKNLAAAEGLEPKYQVQEQESSGEEDSDLSPEEREKKRQFEMRRTLHYNEGLNIKLARQLISKDLHDDDKVEEMLETAHGESMNTEESNQGSTASDQQQNKSRSS", "endpoint.value": "not soluble"}
{"sequence.input": "MSAAGDLRRRARLSRLVSFSASHRLHSPSLSDEENLRVFGKCNNPNGHGHNYKVVVTVHGEIDPVTGMVMNLTDLKEYMEEAIMKPLDHKNLDLDVPYFADAVSTTENVAVYIWESLQKLLPVGALYKVKVFETDNNIVVYKGE", "endpoint.value": "soluble"}
